Tested on: Neurogenic locus notch homolog protein 2 (Homo sapiens) (UniProt Q04721)
Sequence (Q04721 whole entry, looked up): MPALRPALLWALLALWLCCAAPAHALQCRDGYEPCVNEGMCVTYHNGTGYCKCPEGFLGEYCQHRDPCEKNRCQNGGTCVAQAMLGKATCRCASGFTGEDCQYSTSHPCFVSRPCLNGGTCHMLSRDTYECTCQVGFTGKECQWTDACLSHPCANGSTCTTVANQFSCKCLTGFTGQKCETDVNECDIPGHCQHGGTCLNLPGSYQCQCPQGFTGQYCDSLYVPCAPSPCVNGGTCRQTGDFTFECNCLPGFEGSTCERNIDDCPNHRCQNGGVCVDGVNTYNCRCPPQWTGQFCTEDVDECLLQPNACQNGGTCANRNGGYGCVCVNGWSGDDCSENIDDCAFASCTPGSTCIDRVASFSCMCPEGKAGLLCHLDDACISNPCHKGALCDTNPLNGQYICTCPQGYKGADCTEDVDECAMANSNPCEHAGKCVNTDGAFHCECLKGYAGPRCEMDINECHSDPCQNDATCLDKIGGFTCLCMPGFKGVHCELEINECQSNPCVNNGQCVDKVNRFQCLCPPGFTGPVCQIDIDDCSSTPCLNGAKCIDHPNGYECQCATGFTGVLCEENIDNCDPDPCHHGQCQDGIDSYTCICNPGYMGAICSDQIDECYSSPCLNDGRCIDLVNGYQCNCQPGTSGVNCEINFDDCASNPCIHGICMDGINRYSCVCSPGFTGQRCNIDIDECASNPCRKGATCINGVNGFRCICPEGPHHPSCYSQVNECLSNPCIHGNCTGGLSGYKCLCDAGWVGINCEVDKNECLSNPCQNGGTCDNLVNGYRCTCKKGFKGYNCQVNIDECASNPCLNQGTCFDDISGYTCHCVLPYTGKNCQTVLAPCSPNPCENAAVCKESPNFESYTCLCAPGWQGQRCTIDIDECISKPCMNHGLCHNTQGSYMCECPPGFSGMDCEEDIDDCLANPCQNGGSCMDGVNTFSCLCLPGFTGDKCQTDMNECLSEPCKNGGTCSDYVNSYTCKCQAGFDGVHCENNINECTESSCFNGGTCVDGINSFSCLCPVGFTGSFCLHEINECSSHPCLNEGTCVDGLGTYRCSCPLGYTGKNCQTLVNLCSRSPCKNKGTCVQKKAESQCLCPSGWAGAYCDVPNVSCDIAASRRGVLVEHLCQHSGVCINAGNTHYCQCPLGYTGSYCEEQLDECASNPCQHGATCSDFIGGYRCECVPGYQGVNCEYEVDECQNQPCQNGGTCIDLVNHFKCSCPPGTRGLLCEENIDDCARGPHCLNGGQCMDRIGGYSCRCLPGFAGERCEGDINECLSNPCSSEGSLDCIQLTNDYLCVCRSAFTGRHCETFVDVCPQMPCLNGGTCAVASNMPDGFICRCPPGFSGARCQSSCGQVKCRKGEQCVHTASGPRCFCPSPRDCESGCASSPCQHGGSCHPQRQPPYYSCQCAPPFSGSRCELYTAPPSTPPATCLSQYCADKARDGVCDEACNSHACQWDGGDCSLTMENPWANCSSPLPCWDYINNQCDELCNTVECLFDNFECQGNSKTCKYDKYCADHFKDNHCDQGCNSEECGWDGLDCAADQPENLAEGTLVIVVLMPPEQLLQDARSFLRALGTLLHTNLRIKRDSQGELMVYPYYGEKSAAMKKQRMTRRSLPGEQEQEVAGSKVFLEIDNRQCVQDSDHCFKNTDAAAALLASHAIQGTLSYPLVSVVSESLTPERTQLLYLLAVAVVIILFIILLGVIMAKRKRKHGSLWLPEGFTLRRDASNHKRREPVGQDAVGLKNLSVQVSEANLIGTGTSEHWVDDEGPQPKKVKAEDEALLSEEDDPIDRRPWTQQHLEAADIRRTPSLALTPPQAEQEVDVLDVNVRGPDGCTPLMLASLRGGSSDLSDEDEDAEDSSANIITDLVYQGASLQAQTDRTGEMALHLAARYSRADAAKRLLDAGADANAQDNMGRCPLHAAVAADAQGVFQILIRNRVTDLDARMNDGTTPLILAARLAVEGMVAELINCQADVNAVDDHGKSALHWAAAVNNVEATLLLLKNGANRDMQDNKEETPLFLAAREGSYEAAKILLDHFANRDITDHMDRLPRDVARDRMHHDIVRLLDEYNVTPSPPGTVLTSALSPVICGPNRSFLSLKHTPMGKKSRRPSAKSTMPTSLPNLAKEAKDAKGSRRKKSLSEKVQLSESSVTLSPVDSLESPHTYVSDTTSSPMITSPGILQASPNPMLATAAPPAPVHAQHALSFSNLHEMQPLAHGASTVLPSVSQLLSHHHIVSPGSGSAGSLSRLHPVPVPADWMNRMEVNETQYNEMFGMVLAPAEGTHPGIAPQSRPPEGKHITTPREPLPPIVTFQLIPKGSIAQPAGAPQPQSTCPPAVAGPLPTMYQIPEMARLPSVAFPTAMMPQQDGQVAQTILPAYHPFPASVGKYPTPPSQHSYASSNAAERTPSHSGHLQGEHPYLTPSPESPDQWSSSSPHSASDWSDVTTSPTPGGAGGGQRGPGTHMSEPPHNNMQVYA
Method notes: Notch2 binders on small-molecule microarrays, primary screen, biochemical, small-molecule microarray, 635 nm fluorescence, stem cell growth factors (AID 1073)
Study conditions: Notch2 binding, higher = more signal
Please use t whenever composite z-score is not below -0.4, and f whenever it is.

Query: Does the compound Cc1ccccc1C(O)C1C=CC2C(=O)N(c3ccccc3)C(=O)C2N1Nc1ccc(C(C)C)cc1 (configuration not stated) have recorded composite z-score that is -0.4 or more?
Reply: t

###

Tested on: Follistatin-related protein 3 (Homo sapiens) (UniProt O95633)
Sequence (O95633 whole entry, looked up): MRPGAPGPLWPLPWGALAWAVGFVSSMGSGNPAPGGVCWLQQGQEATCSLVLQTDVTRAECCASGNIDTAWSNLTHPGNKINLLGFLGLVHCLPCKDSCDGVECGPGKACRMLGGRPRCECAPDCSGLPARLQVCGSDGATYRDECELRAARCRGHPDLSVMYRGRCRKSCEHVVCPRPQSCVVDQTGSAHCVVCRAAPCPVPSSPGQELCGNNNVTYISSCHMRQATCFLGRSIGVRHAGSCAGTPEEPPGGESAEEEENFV
Method notes: FSTL3 binders on small-molecule microarrays, primary screen, biochemical, small-molecule microarray, 635 nm fluorescence (AID 1105);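 further: score merges emission near 667 nm and signal to noise per printed spot across three slides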
Study conditions: FSTL3 binding, higher = more signal
Would you mind telling me the reported composite z-score of each entry?

// worked examples, composite z-score included
INSERT INTO measurements (molecule, assay_endpoint, endpoint_result) VALUES
  ('C[N+](C)(C)CCCCCCNC(=O)[C@@H]1C[C@@H]2C(=O)N[C@@H](Cc3ccccc3)C(=O)N2[C@@H]1c1cccc(OCCO)c1', 'composite z-score', 1.32),
  ('COCCOC(=O)N1C(=O)[C@@]2(c3cc(C#Cc4ccc(OC)cc4)ccc31)[C@H](c1ccccc1OCCO)N1[C@H](c3ccccc3)[C@H](c3ccccc3)OC(=O)[C@H]1[C@@H]2C(=O)NC[C@H](O)c1ccccc1', 'composite z-score', 1.43),
  ('NCCCCCNC(=O)[C@@H]1C[C@@H]2C(=O)N[C@@H](Cc3ccccc3)C(=O)N2[C@@H]1c1ccc(O)cc1', 'composite z-score', 1.37),
  ('CCC(CC)C(O)C1C=CC2C(=O)NC(=O)C2N1Nc1ccccn1 (configuration not stated)', 'composite z-score', 0.584);

Please look at the items below and tell me composite z-score for each one, in order.
1. COC(=O)[C@@]1(Cc2ccc(OC)cc2)[C@H]2c3cc(C(=O)N(C)C)n(Cc4ccc(S(C)(=O)=O)cc4)c3C[C@H]2CN1C(=O)c1ccccc1
2. O=C(N1CCCCC1)[C@]1(Cc2ccccc2)N=C(c2ccc(OCCCO)cc2)O[C@@H]1c1ccccc1
3. Cc1ccc(S[C@]2(C(=O)NCCCN(C)C)CC(=O)N(Cc3cc(C(F)(F)F)cc(C(F)(F)F)c3)[C@@H]2c2ccc(CO)cc2I)cc1
4. CCCCN1CC=CC23O[C@@H]4C=CCCOC(=O)C4[C@H]2C(=O)N(CCCCCCO)[C@@H]3C1=O (some centres not stated)
5. COC(=O)C(CC#Cc1ccc2c(c1)[C@]1(C(=O)N2)[C@H](c2ccc(OCCO)cc2)N2[C@H](c3ccccc3)[C@H](c3ccccc3)OC(=O)[C@H]2[C@@H]1C(=O)N1CCc2cc(OC)c(OC)cc2C1)C(=O)OC
6. N#Cc1ccc(NN2C(C(O)C(c3ccccc3)c3ccccc3)C=CC3C(=O)N(c4ccccc4)C(=O)C32)cc1 (configuration not stated)
7. COc1cc(NN2C(C(O)c3ccco3)C=CC3C(=O)N(c4ccccc4)C(=O)C32)cc(OC)c1OC (configuration not stated)
8. COc1cc2c(cc1O)C(c1cccs1)N(C)CC2 (configuration not stated)

Reply:
1: 1.08; 2: 0.512; 3: -1.71; 4: -0.187; 5: 1.41; 6: 0.864; 7: 0.373; 8: -0.558

###

Tested on: Torsin-1A (Homo sapiens)
Method notes: torsin A binders from cell lysate, primary screen, small-molecule microarray, wild-type, 635/667 nm (AID 1149)
Study conditions: COS7 hTOR1A-WT lysate, 635 nm fluorescence, higher = more signal
Assay endpoint: composite z-score
One number for each entry.

// worked examples, composite z-score included
INSERT INTO results (smiles_input, tested_on, endpoint_result) VALUES
  ('C=CCOC(=O)[C@@H]1[C@H]2C(=O)O[C@H](c3ccccc3)[C@H](c3ccccc3)N2[C@H](c2ccc(OCCOC(=O)[C@H]3C[C@H]4C(=O)N5CCC[C@H]5C(=O)N4[C@H]3c3ccc(O)cc3)cc2)[C@@]12C(=O)Nc1ccc(I)cc12', 'Torsin-1A (Homo sapiens)', 0.919),
  ('O=C1C[C@@](C(=O)NCC(F)(F)F)(c2ccc([N+](=O)[O-])cc2)[C@@H](c2ccc(CO)cc2I)N1C1CCCCC1', 'Torsin-1A (Homo sapiens)', 0.281),
  ('CC(C)C[C@@H]1NC(=O)[C@@H]2C[C@H](C(=O)O)[C@H](c3cccc(OCCO)c3)N2C1=O', 'Torsin-1A (Homo sapiens)', 0.198);

Let us examine a further case.
Query: Given the entry O=C(NCCO)C1=C[C@H](Oc2ccccc2I)[C@@H](O)[C@H](N(Cc2ccco2)C(=O)Cc2ccccc2)C1 , report its measured composite z-score.
Reply: 0.303

###

Tested on: Albumin (Bos taurus)
Method notes: bovine serum albumin binders on microarray, profiling panel, artefact control for SMM control protein annotation, biochemical, small-molecule microarray, Alexa647 label, 635/667 nm fluorescence (AID 1118);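 further: score merges 667 nm emission intensity and signal-to-noise per printed compound spot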
Study conditions: BSA-A647 binding, fluorescence 635 nm, higher = more signal
Assay endpoint: composite z-score

// worked examples, composite z-score included
INSERT INTO assay_data (molecule, tested_on, endpoint_result) VALUES
  ('CO[C@H]1O[C@H](CO)[C@@H](OC(=O)Nc2cccc(F)c2)[C@H](OC(=O)Nc2ccccc2)[C@@H]1OC(=O)Nc1ccccc1', 'Albumin (Bos taurus)', 0.875),
  ('CC#CC(=O)Oc1ccccc1C=CC(=O)OCC', 'Albumin (Bos taurus)', -0.138),
  ('COc1ccc(C#Cc2ccc3c(c2)[C@]2(C(=O)N3)[C@H](C(=O)Nc3nc4ccccc4s3)[C@H]3C(=O)O[C@H](c4ccccc4)[C@H](c4ccccc4)N3[C@@H]2c2ccc(O)cc2)cc1', 'Albumin (Bos taurus)', 0.835),
  ('C=C(COC)C(=O)CC[C@@H](OC(C)=O)c1ccc(CO)o1', 'Albumin (Bos taurus)', -0.0861),
  ('[N-]=[N+]=NCc1ccccc1[C@@H]1OC(c2ccc(OCCCO)cc2)=N[C@]1(Cc1ccccc1)C(N)=O', 'Albumin (Bos taurus)', 0.979);

Please look at the items below and tell me composite z-score for each one, in order.
1. COc1cc2c(cc1O)C(c1cccs1)N(C)CC2 (centres undefined)
2. C=C(C(=O)CC[C@@H](OC(=O)c1cccnc1)c1ccccc1OCCO)C(C)C
3. COC(=O)[C@@]1(Cc2ccccc2)[C@H]2c3cc(C(=O)N(C)C)n(Cc4ccsc4Br)c3C[C@H]2CN1C(=O)c1ccccc1
4. C[N+](C)(C)CCCCNC(=O)[C@H]1C[C@H]2C(=O)N3CCC[C@H]3C(=O)N2[C@H]1c1cccc(OCCO)c1

Reply:
0.393
0.116
0.928
-1.75

###

Would you mind telling me the reported z-score of each entry?
Method notes: RPMI8226 myeloma cell viability, profiling panel, resazurin fluorescence, basal, 24 h, PK04 Diversity Set (AID 1180);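 further: RPMI8826 multiple myeloma cell line at 5000 cells per well; test concentration not given here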
Study conditions: higher = more signal
Numbers only.

// worked examples, z-score included
INSERT INTO results (smiles_input, endpoint_result) VALUES
  ('O=C(CS)NCCCCCCNC(=O)[C@@H]1C[C@@H]2C(=O)NCC(=O)N2[C@@H]1c1cccc(OCCO)c1', -0.252),
  ('COC(=O)C(CC#Cc1ccc2c(c1)[C@]1(C(=O)N2)[C@H](C(=O)Nc2nc3ccccc3s2)[C@H]2C(=O)O[C@H](c3ccccc3)[C@H](c3ccccc3)N2[C@@H]1c1ccc(O)cc1)C(=O)OC', -2),
  ('O=C(NCCO)C1=C[C@H](Oc2ccccc2I)[C@@H](O)[C@H](N(Cc2ccco2)C(=O)Cc2ccccc2)C1', -0.328);

Let us examine a further case.
Query: Given the entry CCC[C@@H]1C[C@@]1(CCC)[C@@H](NS(=O)(=O)c1cccc2cccnc12)c1ccc(Cl)cc1 , report its measured z-score.
Reply: -0.0909

###

Method notes: anti-His antibody binders, primary screen, artefact control for SMM control protein annotation, biochemical, small-molecule microarray, 635 nm fluorescence (AID 1128);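 further: score merges feature fluorescence with signal-to-noise for each printed compound spot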
Study conditions: anti-His Alexa647 antibody binding, higher = more signal
Would you mind telling me the reported composite z-score of each entry?
Numbers only.

// worked examples, composite z-score included
INSERT INTO results (compound, assay_endpoint, endpoint_result) VALUES
  ('CCCC[C@@H]1C[C@H]1[C@@H](NC(=O)C(C)(C)C)c1ccc(C(F)(F)F)cc1', 'composite z-score', 1.73),
  ('CCCCN1CC=CC23O[C@@H]4C=CCCOC(=O)C4[C@H]2C(=O)N(CCCCCCO)[C@@H]3C1=O (some centres undefined)', 'composite z-score', 0.435),
  ('[N-]=[N+]=Nc1ccccc1[C@H]1OC(c2ccc(OCCCO)cc2)=N[C@@]1(CCS(=O)(=O)c1ccccc1)C(N)=O', 'composite z-score', 2.95);

Query: Given the entry CC(=O)n1cc(C(O)C2C=CC3C(=O)N(c4ccccc4)C(=O)C3N2Nc2ccc([N+](=O)[O-])cc2)c2ccccc21 (centres undefined) , report its measured composite z-score.
Reply: 3.33
